Attribution: patent US8268848B2

- measurement target: OX2 (Homo sapiens)
- protocol notes: Measurement of orexin receptor-binding ability ([125I]-OX-A, cell membranes, OX2)
- Set-up: expressed in transfected cells; host or cells: CHO cells (membrane preparation)
- study conditions: membranes of recombinant CHO cells expressing OX2, 0.2 nM [125I]-OX-A; read-out: OX2 (IC50)
quantity: IC50
The reply should consist of the numeric value with the unit placed after it.

For orientation, consider the following solved cases.
CCc1nc(C)ncc1OC[C@@]1(c2ccc(F)cc2)C[C@H]1C(=O)Nc1ccc(F)cc1; 14 nM
Cc1ncc(OC[C@@]2(c3cc(F)cc(F)c3)C[C@H]2C(=O)Nc2cc(C)c(F)cn2)c(C)n1; 1.5 nM
COc1ccc(C2(COc3cnc(C)nc3C)CC2C(=O)Nc2ccc(Cl)cn2)cc1 (centres unmarked); 21 nM
Cc1ncc(OC[C@@]2(c3ccccc3)C[C@H]2C(=O)Nc2cccc(S(C)(=O)=O)c2)c(C)n1; 55 nM
Cc1ncc(OC[C@@]2(c3ccc(F)cc3)C[C@H]2C(=O)Nc2cc(C)c(F)cn2)c(C)n1; 6 nM
COc1cccc([C@]2(COc3cnc(C)nc3C)C[C@H]2C(=O)Nc2cc(C)c(F)cn2)c1; 4.1 nM

[Q] I have this compound here, Cc1ncc(OC[C@@]2(c3ccccc3)C[C@H]2C(=O)Nc2cccc(N(C)C)c2)c(C)n1 , and I need its recorded IC50.
[A] 10 nM

[Q] I have this compound here, Cc1ncc(OC[C@@]2(c3ccccc3)C[C@H]2C(=O)Nc2cccc(Cl)c2)c(C)n1 , and I need its recorded IC50.
[A] 7 nM

###

- measurement target: OX2 (Homo sapiens)
- protocol notes: Measurement of orexin receptor-binding ability ([125I]-OX-A, cell membranes, OX2)
- Design: expressed in transfected cells; host or cells: CHO cells (membrane preparation)
- study conditions: membranes of recombinant CHO cells expressing OX2, 0.2 nM [125I]-OX-A; read-out: OX2 (IC50)
- Method: 1. Measurement of Orexin Receptor-Binding Ability The assay was carried out using a 96-well Wheat Germ Agglutinin Flash Plate (PerkinElmer). The volume in a single assay well was 100 ul, and the composition of the reaction solution was as follows: […] Cell membranes were prepared from recombinant CHO cells that expressed OX2 or OX1. […] Finally, the radioactivity of each well was measured using a scintillation counter (TopCount, PerkinElmer).
quantity: IC50
The reply should consist of the numeric value with the unit placed after it.

For orientation, consider the following solved cases.
Cc1ncc(OC[C@@]2(c3cccc(F)c3)C[C@H]2c2nc3ccc(Cl)cc3c(=O)[nH]2)c(C)n1 [Example 311]; 3.1 nM
Cc1ncc(OC[C@@]2(c3ccccc3)C[C@H]2C(=O)Nc2ccc3c(c2)NC(=O)CO3)c(C)n1 [Example 23]; 67 nM
CCc1nc(C)ncc1OC[C@@]1(c2ccc(F)cc2)C[C@H]1C(=O)Nc1cc(C)c(F)cn1 [Example 248]; 3 nM

From here, focus on the item given below.
[Q] I have this compound here, Cc1ncc(OC[C@@]2(c3ccccc3)C[C@H]2C(=O)Nc2cc(C#N)ccn2)c(C)n1 [Example 46] , and I need its recorded IC50.
[A] 43 nM

###

- measurement target: OX2 (Homo sapiens, UniProt O43614)
- Sequence (O43614 whole entry): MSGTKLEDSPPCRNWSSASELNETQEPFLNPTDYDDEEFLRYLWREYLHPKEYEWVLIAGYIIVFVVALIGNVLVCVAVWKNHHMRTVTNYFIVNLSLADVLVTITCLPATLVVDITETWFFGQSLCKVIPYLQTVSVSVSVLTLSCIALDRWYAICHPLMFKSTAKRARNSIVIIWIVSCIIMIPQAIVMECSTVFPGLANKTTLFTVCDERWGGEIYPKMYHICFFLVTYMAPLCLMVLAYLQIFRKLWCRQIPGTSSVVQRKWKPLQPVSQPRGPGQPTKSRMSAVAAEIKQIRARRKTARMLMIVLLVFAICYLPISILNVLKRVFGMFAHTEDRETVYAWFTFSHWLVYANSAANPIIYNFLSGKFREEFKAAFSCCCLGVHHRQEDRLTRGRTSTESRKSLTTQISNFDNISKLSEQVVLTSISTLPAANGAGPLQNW
- protocol notes: Measurement of orexin receptor-binding ability ([125I]-OX-A, cell membranes, OX2)
- Design: expressed in transfected cells; host or cells: CHO cells (membrane preparation)
- study conditions: OX2 (IC50) nM, membranes of recombinant CHO cells expressing OX2, 0.2 nM [125I]-OX-A
# note: boundary value 20 nM maps to Not met; IC50 below it maps to Met

Use the examples below as a reference point.
Cc1ncc(OC[C@@]2(c3cccc(I)c3)C[C@H]2C(=O)Nc2ccc(F)cn2)c(C)n1 [Example 283]; Met
Cc1ncc(OC[C@@]2(c3cccc(F)c3)C[C@H]2C(=O)Nc2ccc(C#N)cn2)c(C)n1 [Example 96]; Met
COc1ccc(C2(COc3cnc(C)nc3C)CC2C(=O)Nc2ccc(F)cn2)cc1 (centres unmarked) [Example 181]; Not met

[Q] Find out if reported IC50 for Cc1ncc(OC[C@@]2(c3ccc(F)cc3)C[C@H]2C(=O)Nc2cccc(F)c2)c(C)n1 [Example 107] is less than 20 nM
[A] Not met

[Q] Find out if reported IC50 for Cc1cccc(NC(=O)[C@@H]2C[C@@]2(COc2cnc(C)nc2C)c2ccccc2)n1 [Example 70] is less than 20 nM
[A] Not met

[Q] Find out if reported IC50 for Cc1ncc(OC[C@@]2(c3ccc(F)cc3)C[C@H]2C(=O)Nc2ccc(F)cc2)c(C)n1 [Example 105] is less than 20 nM
[A] Met

[Q] Find out if reported IC50 for Cc1ncc(OC[C@@]2(c3ccc(Br)cc3)C[C@H]2C(=O)Nc2ccc(F)cn2)c(C)n1 [Example 274] is less than 20 nM
[A] Met

[Q] Find out if reported IC50 for COc1cc(F)cc([C@]2(COc3cnc(C)nc3C)C[C@H]2C(=O)Nc2ccc(F)cn2)c1 [Example 254] is less than 20 nM
[A] Met
